# experiment_notes: Area under curve of compound from zero time to infinity determined in rat after iv administration at a dose of 10 mg/kg
# Type: ADME, organism-based
# Set-up: time infinity, dose 10 mg/kg, route intravenous
# protocol_conditions: in vivo
measured_parameter: AUC (ng·h/mL)
Reply numerically in ng·h/mL, unit not repeated.

Fill in the blank: the reported AUC of `CSCC[C@H](NC(=O)c1ccc(COCc2ccc(-c3ccc(Cl)cc3)o2)cc1-c1ccccc1C)C(=O)[O-].[Li+]` is ____.
2390

###

# system_tested: Protein farnesyltransferase (Homo sapiens, UniProt P49354+P49356)
# experiment_notes: In vitro inhibitory activity was evaluated against farnesyltransferase (FTase)
Labelling field: enter condition met if recorded IC50 is less than 10 nM. Enter condition not met if it equals or exceeds that cut-off.

Just wondering, is IC50 of `CSCC[C@H](NC(=O)c1ccc(COCc2ccc(-c3cccc([N+](=O)[O-])c3)o2)cc1-c1ccccc1C)C(=O)O` below 10 nM?
condition met

More entries:
Just wondering, is IC50 of `COc1cccc(-c2ccc(COCc3ccc(C(=O)N[C@@H](CCSC)C(=O)O)c(-c4ccccc4C)c3)o2)c1` below 10 nM?
condition not met

Just wondering, is IC50 of `CSCC[C@H](NC(=O)c1ccc(COCc2ccc(-c3ccncc3)o2)cc1-c1ccccc1C)C(=O)O` below 10 nM?
condition met

###

# experiment_notes: Tmax of compound determined in rat after iv administration at a dose of 10 mg/kg
# Type: ADME, organism-based
# Parameters: dose 10 mg/kg, route intravenous
# protocol_conditions: in vivo
measured_parameter: Tmax (min)
Reply numerically in min, unit not repeated.

Fill in the blank: the reported Tmax of `CSCC[C@H](NC(=O)c1ccc(COCc2ccc(-c3ccc(Cl)cc3)o2)cc1-c1ccccc1C)C(=O)[O-].[Li+]` is ____.
42

###

# experiment_notes: Oral bioavailability of compound determined in rat […] at a dose of 10 mg/kg
# Format: ADME, organism-based
# protocol_conditions: in vivo
measured_parameter: bioavailability (%)
Reply numerically in %, unit not repeated.

Fill in the blank: the reported bioavailability of `CSCC[C@H](NC(=O)c1ccc(COCc2ccc(-c3ccc(Cl)cc3)o2)cc1-c1ccccc1C)C(=O)[O-].[Li+]` is ____.
30

###

# experiment_notes: Oral bioavailability of compound determined in dog […] at a dose of 10 mg/kg
# Type: ADME, organism-based, Canis lupus familiaris
# protocol_conditions: in vivo
measured_parameter: bioavailability (%)
Reply numerically in %, unit not repeated.

Fill in the blank: the reported bioavailability of `CSCC[C@H](NC(=O)c1ccc(COCc2ccc(-c3ccc(Cl)cc3)o2)cc1-c1ccccc1C)C(=O)[O-].[Li+]` is ____.
21.1

###

# experiment_notes: Area under curve of compound determined in rat after iv administration at a dose of 10 mg/kg
# Format: ADME, organism-based
# Parameters: dose 10 mg/kg, route intravenous
# protocol_conditions: in vivo
measured_parameter: AUC (ng·h/mL)
Reply numerically in ng·h/mL, unit not repeated.

Fill in the blank: the reported AUC of `CSCC[C@H](NC(=O)c1ccc(COCc2ccc(-c3ccc(Cl)cc3)o2)cc1-c1ccccc1C)C(=O)[O-].[Li+]` is ____.
8100

###

# experiment_notes: Area under curve of compound determined in dog after iv administration at a dose of 10 mg/kg
# Assay type: ADME, organism-based, Canis lupus familiaris
# Design: dose 10 mg/kg, route intravenous
# protocol_conditions: in vivo
measured_parameter: AUC (ng·h/mL)
Reply numerically in ng·h/mL, unit not repeated.

Fill in the blank: the reported AUC of `CSCC[C@H](NC(=O)c1ccc(COCc2ccc(-c3ccc(Cl)cc3)o2)cc1-c1ccccc1C)C(=O)[O-].[Li+]` is ____.
4940

###

# experiment_notes: Half life of compound determined in rat after iv administration at a dose of 10 mg/kg
# Type: ADME, organism-based
# Parameters: dose 10 mg/kg, route intravenous
# protocol_conditions: in vivo
measured_parameter: half-life (h)
Reply numerically in h, unit not repeated.

Fill in the blank: the reported half-life of `CSCC[C@H](NC(=O)c1ccc(COCc2ccc(-c3ccc(Cl)cc3)o2)cc1-c1ccccc1C)C(=O)[O-].[Li+]` is ____.
1.24

###

# system_tested: Protein farnesyltransferase (Homo sapiens, UniProt P49354+P49356)
# experiment_notes: In vitro inhibitory activity was evaluated against farnesyltransferase (FTase)
# Format: protein-complex assay
Reported IC50 is given for each of the following compounds.
Reply numerically in nM, unit not repeated.

Fill in the blank: the reported IC50 of `CSCC[C@H](NC(=O)c1ccc(COCc2ccc(-c3cccc(C(F)(F)F)c3)o2)cc1-c1ccccc1C)C(=O)O` is ____.
8.8

Fill in the blank: the reported IC50 of `CSCC[C@H](NC(=O)c1ccc(COCc2ccc(-c3ccccc3)o2)cc1-c1ccccc1C)C(=O)O` is ____.
6

More entries:
Fill in the blank: the reported IC50 of `CSCC[C@H](NC(=O)c1ccc(COCc2ccc(-c3ccccc3F)o2)cc1-c1ccccc1C)C(=O)O` is ____.
6.3

Fill in the blank: the reported IC50 of `CSCC[C@H](NC(=O)c1ccc(COCc2ccc(-c3ccc(SC)cc3)o2)cc1-c1ccccc1C)C(=O)O` is ____.
6.2

###

# experiment_notes: Oral bioavailability of compound determined in mouse […] at a dose of 10 mg/kg
# Type: ADME, organism-based
# protocol_conditions: in vivo
measured_parameter: bioavailability (%)
Reply numerically in %, unit not repeated.

Fill in the blank: the reported bioavailability of `CSCC[C@H](NC(=O)c1ccc(COCc2ccc(-c3ccc(Cl)cc3)o2)cc1-c1ccccc1C)C(=O)[O-].[Li+]` is ____.
32

###

# system_tested: Protein farnesyltransferase (Homo sapiens, UniProt P49354+P49356)
# experiment_notes: In vitro inhibitory activity was evaluated against farnesyltransferase (FTase)
# Format: protein-complex assay
measured_parameter: pIC50
As a rule, pIC50 stands for the negative log10 of the concentration, concentration in M.

Some entries whose results are on file:
Fill in the blank: the reported pIC50 of `CSCC[C@H](NC(=O)c1ccc(COCc2ccc(-c3ccc(C(C)C)cc3)o2)cc1-c1ccccc1C)C(=O)O` is ____.
8.54

Fill in the blank: the reported pIC50 of `CSCC[C@H](NC(=O)c1ccc(COCc2ccc(-c3ccc(N(C)C)cc3)o2)cc1-c1ccccc1C)C(=O)O` is ____.
8.59

Fill in the blank: the reported pIC50 of `CSCC[C@H](NC(=O)c1ccc(COCc2ccc(-c3ccc(Cl)c(F)c3)o2)cc1-c1ccccc1C)C(=O)O` is ____.
8.31

Fill in the blank: the reported pIC50 of `CSCC[C@H](NC(=O)c1ccc(COCc2ccc(-c3ccc(Cl)cc3)o2)cc1-c1ccccc1C)C(=O)[O-].[Li+]` is ____.
9.15

Fill in the blank: the reported pIC50 of `CSCC[C@H](NC(=O)c1ccc(COCc2ccc(-c3cccc(F)c3)o2)cc1-c1ccccc1C)C(=O)O` is ____.
8.12

Fill in the blank: the reported pIC50 of `COc1ccc(-c2ccc(COCc3ccc(C(=O)N[C@@H](CCSC)C(=O)O)c(-c4ccccc4C)c3)o2)cc1` is ____.
8.08

Fill in the blank: the reported pIC50 of `CSCC[C@H](NC(=O)c1ccc(COCc2ccc(-c3ccc(C)cc3)o2)cc1-c1ccccc1C)C(=O)O` is ____.
8.54

Fill in the blank: the reported pIC50 of `CSCC[C@H](NC(=O)c1ccc(COCc2ccc(-c3ccc(C(C)=O)cc3)o2)cc1-c1ccccc1C)C(=O)O` is ____.
8.18

More entries:
Fill in the blank: the reported pIC50 of `CSCC[C@H](NC(=O)c1ccc(COCc2ccc(-c3cccnc3)o2)cc1-c1ccccc1C)C(=O)O` is ____.
8.19

Fill in the blank: the reported pIC50 of `COc1ccccc1-c1ccc(COCc2ccc(C(=O)N[C@@H](CCSC)C(=O)O)c(-c3ccccc3C)c2)o1` is ____.
7.70

Fill in the blank: the reported pIC50 of `CSCC[C@H](NC(=O)c1ccc(COCc2ccc(-c3ccc(C=O)cc3)o2)cc1-c1ccccc1C)C(=O)O` is ____.
8.92

Fill in the blank: the reported pIC50 of `CSCC[C@H](NC(=O)c1ccc(COCc2ccc(-c3ccc(F)cc3)o2)cc1-c1ccccc1C)C(=O)O` is ____.
8.82

###

# system_tested: Protein farnesyltransferase (Homo sapiens, UniProt P49354+P49356)
# experiment_notes: In vitro inhibitory activity was evaluated against farnesyltransferase (FTase)
# Assay type: protein-complex assay
measured_parameter: IC50 (nM)
Reply numerically in nM, unit not repeated.

Some entries whose results are on file:
Fill in the blank: the reported IC50 of `CSCC[C@H](NC(=O)c1ccc(COCc2ccc(-c3ccccc3C(F)(F)F)o2)cc1-c1ccccc1C)C(=O)O` is ____.
9.9

Fill in the blank: the reported IC50 of `COC(=O)[C@H](CCSC)NC(=O)c1ccc(COCc2ccc(Br)o2)cc1-c1ccccc1C` is ____.
3

More entries:
Fill in the blank: the reported IC50 of `CSCC[C@H](NC(=O)c1ccc(CNCc2ccco2)cc1-c1ccccc1)C(=O)O` is ____.
560

Fill in the blank: the reported IC50 of `CSCC[C@H](NC(=O)c1ccc(COCc2ccc(-c3ccccn3)o2)cc1-c1ccccc1C)C(=O)O` is ____.
19

Fill in the blank: the reported IC50 of `CSCC[C@H](NC(=O)c1ccc(COCc2ccc(-c3ccc(C(F)(F)F)cc3)o2)cc1-c1ccccc1C)C(=O)O` is ____.
3

Reference for the values: ChEMBL document CHEMBL1131673
